Assay: Cell viability assay (WST-8), HCT116
Assay type: cell-based, human
Conditions: human, HCT116 cells, conc 100, 72 h, replicates; read-out: cell viability relative to control
Procedure: Cell viability assay was performed as previously described. The effect of DCN1 inhibitors on cell growth was evaluated by a WST-8 [2-(2-methoxy-4-nitrophenyl)-3-(4-nitrophenyl)-5-(2,4-disulfophenyl)-2H-tetrazolium, monosodium salt assay (Dojindo Molecular Technologies, Inc). […] At the end of incubation, WST-8 dye (20 μL) was added to each well and incubated for 1–3 h, then the absorbance was measured in a microplate reader (Molecular Devices) at 450 nm. […]
measured endpoint: viability at 72 h (%)
Dear colleague, please return just the value in %, with no unit written.

INPUT: Identify measured viability at 72 h associated with C=C(CN1CCOCC1)C(=O)NC[C@H](NC(=O)[C@@H](Cc1nc2ccc(C(C)C)cc2s1)NC(=O)CC)C1CCCCC1 [DI-1548DD]
OUTPUT: 87.8

---

test system: MDA-MB-231 cells; test: Cell viability assay (WST-8), MDA-MB-231; format: cell-based, human; conditions: Homo sapiens, MDA-MB-231; 72 h; cell line assigned from panel order; read-out: EC50, cell growth inhibition
pEC50: −log10 of the molar value.
measured endpoint: pEC50

Below, each entry is followed by its recorded pEC50 result.
compound	pEC50
NS(=O)(=O)OC[C@@H]1C[C@@H](n2ccc3c(N[C@H]4CCc5ccccc54)ncnc32)C[C@@H]1O [MLN4924]	6.81
C=C(CN1CCOCC1)C(=O)NC[C@H](NC(=O)[C@@H](Cc1nc2ccc(C(C)C)cc2s1)NC(=O)CC)C1CCCCC1 [DI-1548DD]	< 6.00

INPUT: Identify measured pEC50 associated with C=C(CN1CCOCC1)C(=O)NC[C@@H](NC(=O)[C@H](Cc1nc2ccc(C(C)C)cc2s1)NC(=O)CC)C1CCCCC1 [DI-1548]
OUTPUT: < 6.00

---

assay: Cell viability assay (WST-8), MDA-MB-231; assay type: cell-based, human; details: human, MDA-MB-231 cells, conc 3, 72 h, replicates; read-out: cell viability relative to control
measured endpoint: viability at 72 h (%)
Dear colleague, please return just the value in %, with no unit written.

INPUT: Identify measured viability at 72 h associated with NS(=O)(=O)OC[C@@H]1C[C@@H](n2ccc3c(N[C@H]4CCc5ccccc54)ncnc32)C[C@@H]1O
OUTPUT: 106

---

assay: Cell viability assay (WST-8), U2OS; format: cell-based, human; conditions: human, U2OS cells, conc 30, 72 h, replicates; read-out: cell viability relative to control
measured endpoint: viability at 72 h (%)
Dear colleague, please return just the value in %, with no unit written.

INPUT: Identify measured viability at 72 h associated with NS(=O)(=O)OC[C@@H]1C[C@@H](n2ccc3c(N[C@H]4CCc5ccccc54)ncnc32)C[C@@H]1O [MLN4924]
OUTPUT: 97.3

---

test: Pharmacokinetics: concentrations in mouse plasma and liver; assay type: in vivo; settings: male, C57BL/6, mouse, plasma, ip, 25 mg/kg, C57BL/6 male mice, 25 mg/kg IP, 3 h; read-out: Plasma concentration
measured endpoint: concentration at 3 h (µg/mL)
Dear colleague, please return just the value in µg/mL, with no unit written.

INPUT: Identify measured concentration at 3 h associated with C=C(CN1CCOCC1)C(=O)NC[C@@H](NC(=O)[C@H](Cc1nc2ccc(C(C)C)cc2s1)NC(=O)CC)C1CCCCC1
OUTPUT: 0.0045

INPUT: Identify measured concentration at 3 h associated with C=C(CN(C)C)C(=O)NC[C@@H](NC(=O)[C@H](Cc1nc2ccc(C(C)C)cc2s1)NC(=O)CC)C1CCCCC1
OUTPUT: 0.028
